Recorded values, source patent US20060009425A1.

- ASSAY_COMMENT: Single and multiple dose pharmacokinetics, moderate to severe chronic renal impairment (Example 4, Table 23)
- Type: in vivo, human
- STATED_CONDITIONS: human, plasma, oral, 4 ug, moderate renal impairment, 4 μg QD, Study Day 8; read-out: AUC0-24
ASSAY_ENDPOINT: AUC(0-t)
Please answer using a numeric value trailed by its unit.

Q: Form field: reported AUC(0-t) of C[C@H](/C=C/[C@H](C)C(C)(C)O)[C@H]1CC[C@H]2/C(=C/C=C3C[C@@H](O)C[C@H](O)C3)CCC[C@]12C [Paricalcitol]
Result: 2.22 ng·h/mL

----------
- ASSAY_COMMENT: Single and multiple dose pharmacokinetics, 4 μg QD vs 8 μg TIW, subjects in general good health (Example 5)
- Format: in vivo, human
- STATED_CONDITIONS: human, plasma, oral, 8 ug, Regimen B 8 μg TIW, Study Day 12 and 13
ASSAY_ENDPOINT: Cmax (ng/mL)
A number alone suffices; assume ng/mL.

Q: Form field: reported Cmax of `C[C@H](/C=C/[C@H](C)C(C)(C)O)[C@H]1CC[C@H]2/C(=C/C=C3C[C@@H](O)C[C@H](O)C3)CCC[C@]12C`
Result: 0.217

----------
- ASSAY_COMMENT: Bioavailability of capsule vs intravenous formulation, end-stage renal disease on hemodialysis (Example 3)
- Type: in vivo
- STATED_CONDITIONS: human, plasma, 0.24 μg/kg; single oral dose, nonfasting, end-stage renal disease on hemodialysis; read-out: estimated absolute bioavailability
ASSAY_ENDPOINT: bioavailability (%)
A number alone suffices; assume %.

Q: Form field: reported bioavailability of `C[C@H](/C=C/[C@H](C)C(C)(C)O)[C@H]1CC[C@H]2/C(=C/C=C3C[C@@H](O)C[C@H](O)C3)CCC[C@]12C`
Result: 78.8

----------
- ASSAY_COMMENT: Single and multiple dose pharmacokinetics, 4 μg QD vs 8 μg TIW, subjects in general good health (Example 5)
- Assay type: in vivo, human
- STATED_CONDITIONS: human, plasma, oral, 4 ug, Regimen A 4 μg QD, Study Day 1; harmonic mean ± pseudo-standard deviation
- Procedure: Methodology: This Phase I, multiple-dose, open-label, randomized study was conducted according to an o-period, crossover design. […] Plasma concentrations of paricalcitol were determined using a validated liquid chromatography-tandem mass spectrometric assay method at Abbott Laboratories, Abbott Park, Ill. […] The lower limit of quantification (abbreviated as “LOQ”) of paricalcitol was 0.02 ng/mL using a 0.6 mL plasma sample. […]
ASSAY_ENDPOINT: half-life (h)
A number alone suffices; assume h.

Q: Form field: reported half-life of C[C@H](/C=C/[C@H](C)C(C)(C)O)[C@H]1CC[C@H]2/C(=C/C=C3C[C@@H](O)C[C@H](O)C3)CCC[C@]12C [Paricalcitol]
Result: 6.2

----------
- ASSAY_COMMENT: Single and multiple dose pharmacokinetics, moderate to severe chronic renal impairment (Example 4, Table 23)
- Format: in vivo, human
- STATED_CONDITIONS: human, plasma, oral, 4 ug, moderate renal impairment, 4 μg, Study Day 1
ASSAY_ENDPOINT: Tmax

Q: Form field: reported Tmax of C[C@H](/C=C/[C@H](C)C(C)(C)O)[C@H]1CC[C@H]2/C(=C/C=C3C[C@@H](O)C[C@H](O)C3)CCC[C@]12C [Paricalcitol]
Result: 4.7 h

----------
- ASSAY_COMMENT: Single and multiple dose pharmacokinetics, moderate to severe chronic renal impairment (Example 4, Table 23)
- Assay type: in vivo, human
- STATED_CONDITIONS: human, plasma, oral, 4 ug, moderate renal impairment, 4 μg, Study Day 1; harmonic mean ± pseudo-standard deviation; read-out: t1/2 (converted)
- Protocol: Methodology: This was a Phase 1, open-label, single and multiple-dose, multi-center study. […] Plasma concentrations of paricalcitol were determined using a validated liquid chromatography method with tandem mass spectrometric assay method at Abbott Laboratories, Ill. […]
ASSAY_ENDPOINT: half-life (min)
A number alone suffices; assume min.

Q: Form field: reported half-life of C[C@H](/C=C/[C@H](C)C(C)(C)O)[C@H]1CC[C@H]2/C(=C/C=C3C[C@@H](O)C[C@H](O)C3)CCC[C@]12C [Paricalcitol]
Result: 1010

----------
- ASSAY_COMMENT: Single and multiple dose pharmacokinetics, moderate to severe chronic renal impairment (Example 4, Table 23)
- Format: in vivo, human
- STATED_CONDITIONS: human, plasma, oral, 4 ug, moderate renal impairment, 4 μg, Study Day 1
ASSAY_ENDPOINT: Cmax (ng/mL)
A number alone suffices; assume ng/mL.

Q: Form field: reported Cmax of `C[C@H](/C=C/[C@H](C)C(C)(C)O)[C@H]1CC[C@H]2/C(=C/C=C3C[C@@H](O)C[C@H](O)C3)CCC[C@]12C`
Result: 0.113

----------
- ASSAY_COMMENT: Single and multiple dose pharmacokinetics, 4 μg QD vs 8 μg TIW, subjects in general good health (Example 5)
- Type: in vivo, human
- STATED_CONDITIONS: human, plasma, oral, 4 ug, Regimen A 4 μg QD, Study Day 1
ASSAY_ENDPOINT: Cmax
Please answer using a numeric value trailed by its unit.

Q: Form field: reported Cmax of `C[C@H](/C=C/[C@H](C)C(C)(C)O)[C@H]1CC[C@H]2/C(=C/C=C3C[C@@H](O)C[C@H](O)C3)CCC[C@]12C`
Result: 0.1 ng/mL

----------
- ASSAY_COMMENT: Single and multiple dose pharmacokinetics, moderate to severe chronic renal impairment (Example 4, Table 23)
- Assay type: in vivo, human
- STATED_CONDITIONS: human, plasma, oral, 3 ug, severe renal impairment, 3 μg, Study Day 1
ASSAY_ENDPOINT: Cmax (ng/mL)
A number alone suffices; assume ng/mL.

Q: Form field: reported Cmax of `C[C@H](/C=C/[C@H](C)C(C)(C)O)[C@H]1CC[C@H]2/C(=C/C=C3C[C@@H](O)C[C@H](O)C3)CCC[C@]12C`
Result: 0.065

----------
- ASSAY_COMMENT: Single and multiple dose pharmacokinetics, moderate to severe chronic renal impairment (Example 4, Table 23)
- Type: in vivo, human
- STATED_CONDITIONS: human, plasma, oral, 4 μg; moderate renal impairment, Study Day 9; read-out: trough concentration 24 h post dose on Study Day 8
ASSAY_ENDPOINT: concentration at 24 h (ng/mL)
A number alone suffices; assume ng/mL.

Q: Form field: reported concentration at 24 h of C[C@H](/C=C/[C@H](C)C(C)(C)O)[C@H]1CC[C@H]2/C(=C/C=C3C[C@@H](O)C[C@H](O)C3)CCC[C@]12C [Paricalcitol]
Result: 0.057

----------
- ASSAY_COMMENT: Single and multiple dose pharmacokinetics, moderate to severe chronic renal impairment (Example 4, Table 23)
- Format: in vivo, human
- STATED_CONDITIONS: human, plasma, oral, 3 ug, severe renal impairment, 3 μg QD, Study Day 8
ASSAY_ENDPOINT: Cmax (ng/mL)
A number alone suffices; assume ng/mL.

Q: Form field: reported Cmax of `C[C@H](/C=C/[C@H](C)C(C)(C)O)[C@H]1CC[C@H]2/C(=C/C=C3C[C@@H](O)C[C@H](O)C3)CCC[C@]12C`
Result: 0.097

----------
- ASSAY_COMMENT: Single and multiple dose pharmacokinetics, moderate to severe chronic renal impairment (Example 4, Table 23)
- Type: in vivo, human
- STATED_CONDITIONS: human, plasma, oral, 3 ug, severe renal impairment, 3 μg QD, Study Day 8; harmonic mean ± pseudo-standard deviation; read-out: t1/2 (converted)
ASSAY_ENDPOINT: half-life (h)
A number alone suffices; assume h.

Q: Form field: reported half-life of C[C@H](/C=C/[C@H](C)C(C)(C)O)[C@H]1CC[C@H]2/C(=C/C=C3C[C@@H](O)C[C@H](O)C3)CCC[C@]12C [Paricalcitol]
Result: 22.9

----------
- ASSAY_COMMENT: Single and multiple dose pharmacokinetics, 4 μg QD vs 8 μg TIW, subjects in general good health (Example 5)
- Format: in vivo, human
- STATED_CONDITIONS: human, plasma, oral, 4 ug, Regimen A 4 μg QD, Study Day 1
ASSAY_ENDPOINT: AUC(0-inf) (ng·h/mL)
A number alone suffices; assume ng·h/mL.

Q: Form field: reported AUC(0-inf) of `C[C@H](/C=C/[C@H](C)C(C)(C)O)[C@H]1CC[C@H]2/C(=C/C=C3C[C@@H](O)C[C@H](O)C3)CCC[C@]12C`
Result: 1.11

----------
- ASSAY_COMMENT: Single and multiple dose pharmacokinetics, moderate to severe chronic renal impairment (Example 4, Table 23)
- Assay type: in vivo, human
- STATED_CONDITIONS: human, plasma, oral, 3 μg; severe renal impairment, Study Day 9; read-out: trough concentration 24 h post dose on Study Day 8
ASSAY_ENDPOINT: concentration at 24 h (ng/mL)
A number alone suffices; assume ng/mL.

Q: Form field: reported concentration at 24 h of C[C@H](/C=C/[C@H](C)C(C)(C)O)[C@H]1CC[C@H]2/C(=C/C=C3C[C@@H](O)C[C@H](O)C3)CCC[C@]12C [Paricalcitol]
Result: 0.057
